FYI, the data here is from ChEMBL document CHEMBL1201862.

GI50 by entry:
system: SF-539; experiment: NCI tumour cell line growth inhibition, 48 h
Calls of active or inactive are those of the source. Cut-off read from the data, not from the text of the source: active = GI50 up to about 1.1 µM and inactive = higher.

COc1nc(N)nc2nc[nH]c12 ... 495 µM (inactive)
COC(=O)c1cc(-c2c[nH]cc2C(=O)OCc2ccccc2)cn1S(=O)(=O)c1ccc(C)cc1 ... > 100 µM (inactive)
C/C(=N/NC(=O)c1ccncc1)c1ccc(NC(=O)C(=O)Nn2c(S)nc3ccccc3c2=O)cc1 ... > 100 µM (inactive)
O=C(Nc1ccc(N2C(=O)CSC2c2cccs2)cc1)c1ccc(N2C(=O)CSC2c2cccs2)cc1 (stereo unspecified) ... > 100 µM (inactive)
COc1ccc(NC(=O)C2=C(SC)C(C#N)C(=O)N=C2N)cc1 (stereo unspecified) ... > 100 µM (inactive)
C=CCN1C(=O)/C(=C/c2ccccc2)N=C1SC/C=C/C ... > 100 µM (inactive)
CCOc1ccc2c(c1)NC(=O)C(C1OC(c3ccccc3)=CC1=O)S2 (stereo unspecified) ... 25.1 µM (inactive)
CC[S+]([O-])c1c2cc(OC)ccc2nc2ccc(OC)cc12 (stereo unspecified) ... 6.79 µM (inactive)
CCOC(=O)c1c(-c2cccc3ccccc23)c(C#N)c(=S)n(C2OC(COC(C)=O)C(OC(C)=O)C(OC(C)=O)C2OC(C)=O)c1C (stereo unspecified) ... > 100 µM (inactive)
O=C1NC2(CCCCC2)C2CCCCCC12 (stereo unspecified) ... > 100 µM (inactive)

In: Looking for the measured GI50 of COc1cc2c(c(C)c1O)[C@H]1COc3ccccc3[C@H]1O2 , can you help?
Out: 8.41 µM (inactive)

In: Now consider Cc1ccc(S(=O)(=O)N/N=C2\CC3C4C=CC3C2C4)cc1 (stereo unspecified) and answer again.
Out: > 100 µM (inactive)

In: Same lookup for N#Cc1sc2c(c1OC(=O)c1ccc(Cl)cc1Cl)c(=O)n(-c1ccccc1)c(=S)n2-c1ccccc1 , please.
Out: 18.2 µM (inactive)

In: # iterate: NC1(C(=O)O)CCc2ccc(N(CCCl)CCCl)cc2C1 (stereo unspecified)
Out: 34.5 µM (inactive)

---

tested on: KM12; assay: NCI tumour cell line growth inhibition, 48 h
Calls of active or inactive are those of the source. Rule as the data show it: active = GI50 up to about 1.1 µM and inactive = higher.
Entries annotated with measured GI50

The examples below pair each entry with its known result.
Cc1ccc2c(c1)C(=O)C1(Cc3ccccc3C1=O)C2 (configuration not stated) ... > 100 µM (inactive)
CSC1(Cc2ccccn2)C(=O)Nc2cccc([N+](=O)[O-])c21 (configuration not stated) ... > 100 µM (inactive)
Nc1cc2c(C3OC(CO)C(O)C3O)n[nH]c2c(=S)[nH]1 (configuration not stated) ... > 100 µM (inactive)
CCOC(=O)c1nc2cc(C(F)(F)F)ccc2nc1Oc1ccc(F)cc1 ... > 100 µM (inactive)
C/C=C/C(=O)N1C(=O)OC[C@@H]1c1ccccc1 ... 14.7 µM (inactive)
CCCCOC(=O)NC(=O)c1cn(CCCOC(=O)NCCCCCCNC(=O)OCCCn2cc(C(=O)NC(=O)OCCCC)c(=O)[nH]c2=O)c(=O)[nH]c1=O ... > 100 µM (inactive)

In: Returns the measured GI50 for the input molecule. Input: CC(=O)Nc1ccc2cc3c(nc2n1)c1cccnc1n3S(=O)(=O)c1ccccc1
Out: > 100 µM (inactive)

In: Query Cc1ccsc1C(=O)C(CC(=O)c1cccs1)c1ccsc1 (configuration not stated) next
Out: > 100 µM (inactive)

In: Okay, and NS(=O)(=O)c1ccc(N=C2C(=O)Nc3ccccc32)cc1 ?
Out: > 100 µM (inactive)

In: How about Cc1nc2c(Br)cc(Br)cc2c(=O)n1-c1ccccc1NC1OC(CO)C(O)C(O)C1O (configuration not stated) ?
Out: > 100 µM (inactive)

In: Same thing, different molecule: COC(=O)CCC(C)C1CCC2C3C(C[C@H](OC(C)=O)[C@]12C)[C@@]1(C)CCC2(C[C@H]1C[C@H]3OC(C)=O)OOC1(CC[C@]3(C)C4C[C@H](OC(C)=O)[C@]5(C)C(C(C)CCC(=O)OC)CCC5C4[C@H](OC(C)=O)C[C@@H]3C1)OO2 (some centres not stated)
Out: > 100 µM (inactive)

In: And for COc1ccccc1CC(=O)C(O)(C(F)(F)F)C(F)(F)F ?
Out: > 100 µM (inactive)

In: Now consider COc1ccc(C(=O)C2=NON3OC23C(=O)c2ccc(OC)cc2)cc1 (configuration not stated) and answer again.
Out: 19.2 µM (inactive)

In: Would you mind doing COC(=O)CCC(=O)c1ccc2c(c1)CC1(C2)Cc2ccc(C(=O)CCC(=O)OC)cc2C1 as well?
Out: > 100 µM (inactive)

In: Subsequent entry: CSC(=S)NN=C1CCCCC1
Out: 28.7 µM (inactive)

In: Entry to check: Cc1cc(C)c(C(=O)/C(=C/c2ccccc2)c2ccccc2)c(C)c1
Out: 55.2 µM (inactive)

In: Record: O=C1CSC(c2ccccc2O)N1c1ccc(Oc2ccc(Cl)cc2)c(Cl)c1 (configuration not stated)
Out: 17.5 µM (inactive)

---

tested on: HCT-116; assay: NCI tumour cell line growth inhibition, 48 h
Activity calls are given as the source filed them. No stated cut-off is given here; in the data, active = GI50 up to about 1.1 µM and inactive = higher.
Reported GI50 values are given for each entry in this list.

Sample records with GI50:
CNC(=S)/C(=N\Nc1[nH]cnc1C(N)=O)C(N)=S ... 3.52 µM (inactive)
CCCCCCCCCCCCCCCC(=O)ON1C(=S)NC(C)(c2ccccc2)C1=S (stereo not given) ... > 100 µM (inactive)
Cn1c(=O)c(Br)c(C=O)n(CCO[N+](=O)[O-])c1=O ... 3.78 µM (inactive)
CC12CC(=O)Nc3ccccc3N1C(c1ccccc1)=NO2 (stereo not given) ... > 100 µM (inactive)
C[C@@H]1OC(=O)C[C@H]2CC(=O)N(CCc3cn(S(=O)(=O)C(F)(F)F)c4ccccc34)C[C@@H]21 ... > 100 µM (inactive)

In: Given the entry CC(C)(C)NC(NC(C)(C)C)=C(C(Cl)=C(Cl)Cl)[N+](=O)[O-] , report its measured GI50.
Out: > 100 µM (inactive)

In: Moving on to N#CC(C#N)=CNC(=S)c1ccncc1
Out: 53.6 µM (inactive)

In: Request: C/C(=N/NC(=O)c1ccncc1)c1ccc(NC(=O)C(=O)Nn2c(S)nc3ccccc3c2=O)cc1
Out: > 100 µM (inactive)

In: One more molecule: c1ccc(CSP234N5CCN2CCN3CCN4CC5)c(CSP234N5CCN2CCN3CCN4CC5)c1
Out: > 100 µM (inactive)

In: O=C1Cc2c(-c3ccc(Cl)cc3)cc(-c3ccccc3)nc2-c2ccccc2N1 , same question.
Out: 3.44 µM (inactive)

---

tested on: 786-0; test: NCI tumour cell line growth inhibition, 48 h
Activity calls are given as the source filed them. Rule as the data show it: active = GI50 up to about 1.1 µM and inactive = higher.
readout_type: GI50

Solved cases (3 shown):
COC(=O)[C@@]12OC[C@]34C([C@@H](O)C1O)[C@@]1(C)CC(=O)C(OC(=O)/C=C(/c5ccccc5)C(F)(F)F)=C(C)C1C[C@H]3OC(=O)[C@H](O)[C@H]42 (some centres undefined) ... 9.04 µM (inactive)
Clc1nc(-c2ccccc2)nc(Cl)c1Cl ... 8.05 µM (inactive)
CCCCCCCCCCCCCCCCOC(=O)c1cc(O)cc(C(=O)OCCCCCCCCCCCCCCCC)c1 ... > 100 µM (inactive)

Please examine the following record next.
In: Data request, read-out GI50, for COc1ccc(OC)c(CC(=O)c2ccc(O)c(C(=O)NCCc3ccc(F)cc3)c2)c1
Out: 4.18 µM (inactive)

---

Examples of molecules with documented GI50 follow.
system: HOP-92; experiment: NCI tumour cell line growth inhibition, 48 h
The source made the active and inactive calls. Cut-off read from the data, not from the text of the source: active = GI50 up to about 1.1 µM and inactive = higher.

COc1cc(CNc2nc3ccccc3n2Cc2ccccc2)cc(CN2CCOCC2)c1O ... 12.1 µM (inactive)
Cc1cc(Cl)cc2c1NC(=O)C2(O)CC(=O)c1ccc(F)cc1 (stereo not given) ... > 100 µM (inactive)
O=C1c2ccccc2C(O)(O)C1(O)C1(O)C(=O)c2ccccc2C1(O)O (stereo not given) ... 37.6 µM (inactive)
O=c1c2c(-c3ccccc3)onc2n(-c2ccccc2)c(=O)n1-c1ccccc1 ... > 100 µM (inactive)
O=C(CSc1nc2ccc(Cl)cc2c(=O)n1-c1ccccc1)N/N=C1\C(=O)Nc2ccc(F)cc21 ... 2.49 µM (inactive)
COc1ccc(NC(=S)N/N=C(\C)c2nc3cccnc3[nH]2)cc1 ... 4.4 µM (inactive)
CC1CC(NN(C)C)C2(C(N)=O)C(N)=NC(=O)C12C#N (stereo not given) ... > 100 µM (inactive)
C[C@]12CC[C@H](OC(=O)Cc3ccc(N(CCCl)CCCl)cc3)CC1CC[C@@H]1C2CC[C@]2(C)NC(=O)CCC12 (stereo not given in full) ... 15.6 µM (inactive)
CCSC1=CC(Cc2ccc(OC)cc2)N(C(=O)OC)C1 (stereo not given) ... 55.2 µM (inactive)

Now turn to the next molecule.
In: For the molecule NC(CCC(=O)c1ccccn1)C(=O)O (stereo not given) , what GI50 is on record?
Out: > 100 µM (inactive)
